pKi: −log10 of the molar value.
Below, pKi values reported for Cathepsin S (Homo sapiens) across several publications.
Give 1.0 when the value for pKi is at least 6. Give 0.0 when it is less.

CC(C)(C)OC(=O)N[C@@H](Cc1csc2ccccc12)C(=O)NCC#N    1.0
O=C(NCCNc1ccc(F)cc1)[C@H](CC(=O)N1CCOCC1)CC1CCCCC1    0.0
O=C(COc1ccccc1I)NCCc1nc2ccccc2[nH]1    1.0
CC(C)C[C@H](NC(=O)OCc1ccccc1)C(=O)N[C@@H](CCc1ccccc1)C(=O)COCc1ccccc1    1.0
CC(C)CC(C(=O)NCC#N)c1cccc(-c2cccc(-c3csc(N4CCNCC4)n3)c2)c1 (racemic)    0.0
C[C@@H](CNc1ccc(OC(F)(F)F)cc1)NC(=O)[C@H](CSCc1ccccc1)NC(=O)N1CCOCC1    1.0

Does "CC[C@H](C)[C@H](NC(=O)OCc1ccccc1)C(=O)N(C)N(C)C#N" have a reported pKi of at least 6? 1.0

###

Below, pKi values reported for Cathepsin S (Homo sapiens) across several publications.
Numbers only, as −log10 of the molar value.

Here are 2 molecules together with their reported answers.
CCCC[C@H](NC(=O)[C@@H](NC(=O)c1ccc(CN)cc1)C(C)CC)C(=O)CO (stereo partly drawn)    6.34
CC(C)(C)OC(=O)N[C@H](C(=O)NCC#N)c1ccccc1    5.77

Respectfully, I request pKi for each entry included below.
1. CC(C)C[C@H](NC(=O)OCc1ccccc1)C(=O)N[C@@H]1CCCN(C(=O)[C@H](CC(C)C)NC(=O)OCc2ccccc2)CC1=O
2. CC(C)(C)OC(=O)N[C@@H](Cc1ccccc1Br)C(=O)NCC#N
3. CCC[C@H](NC(=O)C1(NC(=O)c2ccc(F)cc2)CCCCC1)C(=O)c1nnc(-c2ccco2)o1
4. C[C@@H](CNc1ccc(OC(F)(F)F)cc1)NC(=O)[C@H](CC1CCCCC1)NC(=O)O[C@@H]1CCOC1
5. CCC[C@@H](CNc1ccc(OC(F)(F)F)cc1)NC(=O)[C@@H](CC(=O)N1CCOCC1)CC1CCCCC1
6. CCC[C@H](NC(=O)C1(NC(=O)c2ccc(OC(F)(F)F)cc2)CCCCC1)C(=O)c1nnc(-c2cccc(C(F)(F)F)c2)o1
7. N#CCNC(=O)[C@H](Cc1ccccc1)NC(=O)c1ccccc1
8. CC(C)C[C@H](NC(=O)c1ccc(CN)cc1)C(=O)N[C@@H](CCc1ccccc1)C(=O)CO

1. 7.01
2. 6.21
3. 6.85
4. 7.38
5. 7.89
6. 5.48
7. 7.11
8. 7.34

Respectfully, I request pKi for each entry included below.
1. CCC[C@H](NC(=O)C1(NC(=O)c2ccc(N(C)C)cc2)CCCCC1)C(=O)c1nnc(-c2ccco2)o1
2. CC(C)CC(C(=O)NCC#N)c1cccc(-c2ccc(-c3csc(N4CCNCC4)n3)cc2)c1 (racemic)
3. CC(C)C[C@@H](C#N)NC(=O)[C@H](CC(C)C)NC(=O)[C@H](CC(C)C)NC(=O)OCc1ccccc1
4. CC(=O)CNC(=O)[C@H](Cc1ccccc1)NC(=O)OC(C)(C)C
5. CC(C)(C)OC(=O)N[C@@H](Cc1cccc(Br)c1)C(=O)NCC#N

[6.15, 5.02, 7.34, 5.68, 6.47]
